Assay: Tmax in dog at 2.5 mg/kg,po
Assay type: ADME, organism-based, Canis lupus familiaris
Settings: in vivo
RECORDED METRIC: Tmax (h)

Cc1noc2c1-c1ccccc1C(c1ccc(Cl)cc1)=N[C@H]2CC(N)=O = 1.3

====

Target: Peregrin (Homo sapiens)
Sequence (P55201 whole entry): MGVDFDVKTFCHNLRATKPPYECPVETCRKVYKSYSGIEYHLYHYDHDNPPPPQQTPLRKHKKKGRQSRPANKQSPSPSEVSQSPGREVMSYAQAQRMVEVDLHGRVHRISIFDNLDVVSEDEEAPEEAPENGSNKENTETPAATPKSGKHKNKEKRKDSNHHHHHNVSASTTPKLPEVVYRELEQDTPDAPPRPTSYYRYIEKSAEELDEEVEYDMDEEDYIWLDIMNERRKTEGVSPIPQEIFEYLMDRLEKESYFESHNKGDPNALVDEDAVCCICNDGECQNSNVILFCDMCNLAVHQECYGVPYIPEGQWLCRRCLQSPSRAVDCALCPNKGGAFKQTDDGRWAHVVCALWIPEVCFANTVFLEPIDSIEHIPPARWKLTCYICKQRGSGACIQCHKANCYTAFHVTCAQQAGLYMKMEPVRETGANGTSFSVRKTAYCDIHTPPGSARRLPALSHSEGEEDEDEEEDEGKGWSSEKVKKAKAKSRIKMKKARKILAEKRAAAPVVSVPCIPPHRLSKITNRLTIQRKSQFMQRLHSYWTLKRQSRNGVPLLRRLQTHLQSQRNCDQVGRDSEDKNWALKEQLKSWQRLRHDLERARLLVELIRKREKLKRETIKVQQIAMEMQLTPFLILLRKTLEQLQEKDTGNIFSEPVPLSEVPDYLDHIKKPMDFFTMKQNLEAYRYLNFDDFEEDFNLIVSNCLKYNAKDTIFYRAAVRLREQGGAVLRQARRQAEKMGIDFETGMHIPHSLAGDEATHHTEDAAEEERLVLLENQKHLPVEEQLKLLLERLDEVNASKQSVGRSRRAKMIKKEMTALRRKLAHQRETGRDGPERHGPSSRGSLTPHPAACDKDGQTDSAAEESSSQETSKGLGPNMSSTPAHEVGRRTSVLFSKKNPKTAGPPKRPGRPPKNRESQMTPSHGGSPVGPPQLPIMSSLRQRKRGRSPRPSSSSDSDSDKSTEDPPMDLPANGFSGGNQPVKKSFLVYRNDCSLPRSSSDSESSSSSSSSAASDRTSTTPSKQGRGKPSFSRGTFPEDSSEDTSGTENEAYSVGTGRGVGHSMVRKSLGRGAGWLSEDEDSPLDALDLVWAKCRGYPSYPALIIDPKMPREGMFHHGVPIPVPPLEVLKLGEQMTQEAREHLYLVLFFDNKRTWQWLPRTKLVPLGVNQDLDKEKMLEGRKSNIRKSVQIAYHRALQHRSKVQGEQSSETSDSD
Experiment: Binding affinity to BRPF1 bromodomain (unknown origin) incubated for 60 mins by TR-FRET assay
RECORDED METRIC: IC50

Cc1noc2c1-c1ccccc1C(c1ccc(Cl)cc1)=N[C@H]2CC(N)=O [PELABRESIB] = > 20 µM

====

# predicted hepatic clearance (CLH) per record follows
Assay: Intrinsic clearance in rat liver microsomes
Assay type: ADME, Microsome
RECORDED METRIC: predicted hepatic clearance (CLH) (mL/min/kg)

COc1ccc2c(c1)C(c1ccc(Cl)cc1)=N[C@@H](CC(N)=O)c1onc(C)c1-2 = 35
CCNC(=O)NC1N=C(c2ccc(Cl)cc2)c2ccccc2-c2c(C)noc21 (stereo not given) = 29
Cc1noc2c1-c1ccc(-c3ccc(N)nc3)cc1C(c1ccc(Cl)cc1)=N[C@H]2CC(N)=O = 34
COc1ccc(C2=N[C@@H](CC(N)=O)c3onc(C)c3-c3ccccc32)cc1 = 33
Cc1cccc2c1C(c1ccc(Cl)cc1)=N[C@@H](CC(N)=O)c1onc(C)c1-2 = 37
